Reported pStat3 HTRF IC50 (DB cells IL23R pSTAT3 cell assay, 0.5 nM IL-23) values are given for each entry in this list.
# assayed-system: T1, interleukin-23 receptor (IL-23R), human (human, UniProt Q5VWK5 24-629)
# T1 sequence (looked up): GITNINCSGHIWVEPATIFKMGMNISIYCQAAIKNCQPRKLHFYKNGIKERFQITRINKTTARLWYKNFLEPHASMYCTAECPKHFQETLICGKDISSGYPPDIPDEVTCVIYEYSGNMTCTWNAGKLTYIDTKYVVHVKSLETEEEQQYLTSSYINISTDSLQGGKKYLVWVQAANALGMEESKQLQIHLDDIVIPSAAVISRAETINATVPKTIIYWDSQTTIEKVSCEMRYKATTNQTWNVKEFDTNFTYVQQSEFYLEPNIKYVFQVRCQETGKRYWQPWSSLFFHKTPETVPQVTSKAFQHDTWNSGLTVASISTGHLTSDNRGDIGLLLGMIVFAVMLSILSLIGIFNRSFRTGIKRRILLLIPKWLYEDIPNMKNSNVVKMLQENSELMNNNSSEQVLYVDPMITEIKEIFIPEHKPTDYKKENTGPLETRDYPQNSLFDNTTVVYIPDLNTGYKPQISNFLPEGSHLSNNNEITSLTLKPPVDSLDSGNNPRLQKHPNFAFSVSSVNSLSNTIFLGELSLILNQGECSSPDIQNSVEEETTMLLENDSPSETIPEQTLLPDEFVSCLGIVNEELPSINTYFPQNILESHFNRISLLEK
# run-description: cell-based or functional assay
Bridges are numbered along the chain shown (N, C = ends). [ ]: non-standard residue; d: D form. Trp(7-Ph) = N[C@@H](Cc1c[nH]c2c(-c3ccccc3)cccc12)C(=O)O; 2Nal = N[C@@H](Cc1ccc2ccccc2c1)C(=O)O; Trp(7-thienyl) = 7-thienyl-tryptophan; AEF = NCCOc1ccc(C[C@H](N)C(=O)O)cc1; Pen = CC(C)(S)[C@H](N)C(=O)O; αMeK = C[C@](N)(CCCCN)C(=O)O; Abu = CC[C@H](N)C(=O)O
# unit: nM | format: bare number

| binder | measurement-unit | number |
| --- | --- | --- |
| Ac-[dR][Abu]QT[Trp(7-Ph)]K(Ac)C[AEF][2Nal][αMeK]K(Ac)N-NH2 (thioether 2-7) [Peptide No. 4 (SEQ ID No. 4)] | nM | 49.4 |

query: Look up pStat3 HTRF IC50 (DB cells IL23R pSTAT3 cell assay, 0.5 nM IL-23): XNTXKXXXXKNK (Ac-[Pen]-N-T-[W(7-Ph)]-[Lys(Ac)]-[Pen]-Phe[4-(2-aminoethoxy)]-[3Quin]-[a-MeLys]-[Lys(Ac)]-N-[(D)Lys]-NH2; N-terminal acetyl, C-terminal amide; cyclized via Pen-Pen disulfide bond) [Peptide No. 14 (SEQ ID No. 14)]
result: 0.437

query: Look at this binder and give its reported pStat3 HTRF IC50 (DB cells IL23R pSTAT3 cell assay, 0.5 nM IL-23). XNTXKXXXXENL (Ac-[Pen]-N-T-[W(7-Ph)]-[Lys(Ac)]-[Pen]-Phe[4-(2-aminoethoxy)]-[3Quin]-[THP]-E-N-[(D)Leu]-NH2; N-terminal acetyl, C-terminal amide; cyclized via Pen-Pen disulfide bond) [Peptide No. 15 (SEQ ID No. 15)]
result: 0.186

query: Need pStat3 HTRF IC50 (DB cells IL23R pSTAT3 cell assay, 0.5 nM IL-23), item Ac-[Abu]QT[Trp(7-Ph)]K(Ac)C[AEF][2Nal][αMeK]K(Ac)N[dK]-NH2 (thioether 1-6) [Peptide No. 19 (SEQ ID No. 19)]
result: 2.57

query: Suppose we examine the binder Ac-[Pen]NT[Trp(7-thienyl)]Q[Pen][AEF][2Nal][αMeK]K(Ac)N[dK]-NH2 (disulfide 1-6) [Peptide No. 2 (SEQ ID No. 2)] ; what pStat3 HTRF IC50 (DB cells IL23R pSTAT3 cell assay, 0.5 nM IL-23) value has been reported?
result: 1.21

query: Which value of pStat3 HTRF IC50 (DB cells IL23R pSTAT3 cell assay, 0.5 nM IL-23) has been reported for XNTXKXXXXKNL (Ac-[Pen]-N-T-[W(7-Ph)]-[Lys(Ac)]-[Pen]-Phe[4-(2-aminoethoxy)]-[2-Nal]-[a-MeLys]-[Lys(Ac)]-N-[(D)Leu]-NH2; N-terminal acetyl, C-terminal amide; cyclized via Pen-Pen disulfide bond) [Peptide No. 1 (SEQ ID No. 1)] in the records?
result: 0.518

query: Could you share which pStat3 HTRF IC50 (DB cells IL23R pSTAT3 cell assay, 0.5 nM IL-23) value was measured for XNTXKXXXXENK (Ac-[Pen]-N-T-[W(7-Ph)]-[Lys(Ac)]-[Pen]-Phe[4-(2-aminoethoxy)]-[3Quin]-[THP]-E-N-[(D)Lys]-NH2; N-terminal acetyl, C-terminal amide; cyclized via Pen-Pen disulfide bond) [Peptide No. 13 (SEQ ID No. 13)] ?
result: 0.386

query: Given the entry XNTXKXXXXKNL (Ac-[Pen]-N-T-[W(7-Ph)]-[Lys(Ac)]-[Pen]-Phe[4-(2-aminoethoxy)]-[3Quin]-[a-MeLys]-[Lys(Ac)]-N-[(D)Leu]-NH2; N-terminal acetyl, C-terminal amide; cyclized via Pen-Pen disulfide bond) [Peptide No. 16 (SEQ ID No. 16)] , report its measured pStat3 HTRF IC50 (DB cells IL23R pSTAT3 cell assay, 0.5 nM IL-23).
result: 0.365

query: Param item = Ac-[dR][Abu]QT[Trp(7-Ph)]K(Ac)C[AEF][2Nal][αMeK]K(Ac)N[dL]-NH2 (thioether 2-7) [Peptide No. 3 (SEQ ID No. 3)] ; retrieve measured pStat3 HTRF IC50 (DB cells IL23R pSTAT3 cell assay, 0.5 nM IL-23).
result: 9.42

query: I would be grateful if you could share the reported pStat3 HTRF IC50 (DB cells IL23R pSTAT3 cell assay, 0.5 nM IL-23) for Ac-[dR][Abu]QT[Trp(7-Ph)]K(Ac)C[AEF][2Nal][αMeK]K(Ac)N[dK]-NH2 (thioether 2-7) [Peptide No. 5 (SEQ ID No. 5)] .
result: 8.53

query: Dear colleague, I am looking for the recorded pStat3 HTRF IC50 (DB cells IL23R pSTAT3 cell assay, 0.5 nM IL-23) of the following binder: Ac-[Abu]QT[Trp(7-Ph)]K(Ac)C[AEF][2Nal][αMeK]K(Ac)N[dL]-NH2 (thioether 1-6) [Peptide No. 18 (SEQ ID No. 18)]
result: 0.993
